- Test target: TYK2 (Homo sapiens (Human))
- Sequence (P29597 897-1176): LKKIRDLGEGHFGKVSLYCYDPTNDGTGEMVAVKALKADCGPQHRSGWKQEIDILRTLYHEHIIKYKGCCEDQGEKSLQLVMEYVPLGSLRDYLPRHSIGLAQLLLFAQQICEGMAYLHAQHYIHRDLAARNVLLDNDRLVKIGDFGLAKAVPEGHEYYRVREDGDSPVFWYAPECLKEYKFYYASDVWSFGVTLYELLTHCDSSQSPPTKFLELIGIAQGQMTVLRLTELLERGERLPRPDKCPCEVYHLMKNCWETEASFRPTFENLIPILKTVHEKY
- Method summary: JAK Caliper Enzyme Assay at 1 mM ATP, TYK2
- Type: biochemical
// thresholds for IC50 classes: lo = under 0.05 µM, mid = from 0.05 µM up to 0.2 µM, hi = 0.2 µM and over

Field: example entries. Status: answers known.
compound=N#CCC1(n2cc(-c3nc(-c4cnn(C5CCOCC5)c4)cc4ncccc34)cn2)CN(CC(F)(F)F)C1 label_class=lo
compound=CS(=O)(=O)N1CC(CC#N)(n2ccc(-c3nc(-c4cnc(N)nc4)cc4ncccc34)n2)C1 label_class=hi
compound=N#CC[C@]1(n2cc(-c3nc(-c4cnn(CCO)c4)cc4ncccc34)cn2)C[C@H](C#N)C1 label_class=mid
compound=Cn1ncc(-c2cc(-c3cnn([C@]4(CC#N)C[C@H](C#N)C4)n3)c3cccnc3c2)c1N label_class=mid
compound=Cn1cc(-c2cc3ncccc3c(-n3ccc(C4(CC#N)CN(CC(F)(F)F)C4)n3)n2)cn1 label_class=mid

(Q) Category of Cn1cnc(-c2cc3ncccc3c(-c3ccn(C4(CC#N)CN(CC(F)(F)F)C4)n3)n2)c1 , please.
(A) mid

(Q) Category of Cn1ccc(-c2cc(-c3cnn([C@]4(CC#N)C[C@@H](C#N)C4)n3)c3cccnc3c2)n1 , please.
(A) lo

(Q) Category of N#CC[C@]1(n2ccc(-c3nc(-c4ccnc(C(N)=O)n4)cc4ncccc34)n2)C[C@H](C#N)C1 [Example 243] , please.
(A) lo

(Q) Category of Cn1cc(-c2cc3ncccc3c(-c3ccn([C@]4(CC#N)C[C@@H](C#N)C4)n3)n2)cn1 , please.
(A) lo

(Q) Category of N#CCC1(n2ccc(-c3nc(-c4ccncc4F)cc4ncccc34)n2)CN(CC(F)(F)F)C1 , please.
(A) hi

(Q) Category of Cn1nc(-c2cc3ncccc3c(-c3ccn([C@]4(CC#N)C[C@@H](C#N)C4)n3)n2)cc1CO , please.
(A) mid

(Q) Category of Cn1cc(-c2cc(-c3cn(C4(CC#N)CN(S(C)(=O)=O)C4)nn3)c3cccnc3c2)cn1 , please.
(A) hi

(Q) Category of Cn1cc(-c2cc(-c3cnn([C@]4(CC#N)C[C@@H](C#N)C4)n3)c3cccnc3c2)cn1 , please.
(A) lo

(Q) Category of Cc1ccc(-c2cc3ncccc3c(-c3ccn(C4(CC#N)CN(S(C)(=O)=O)C4)n3)n2)cn1 , please.
(A) mid

(Q) Category of COc1ncccc1-c1cc2ncccc2c(-c2ccn(C3(CC#N)CN(S(C)(=O)=O)C3)n2)n1 , please.
(A) hi
